System: HCC-78
Assay: relative viability (nuclei count vs DMSO), 5 days (fraction); higher = more cells survive
Details: first compound 0.4 µM
Measured relative viability of individual entries
quantity: relative viability

INSERT INTO results (compound, endpoint_value) VALUES
  ('Cc1sc2c(c1C)C(c1ccc(Cl)cc1)=N[C@@H](CC(=O)OC(C)(C)C)c1nnc(C)n1-2 [JQ1] + CC1(C)CCC(c2ccc(Cl)cc2)=C(CN2CCN(c3ccc(C(=O)NS(=O)(=O)c4ccc(N[C@H](CCN5CCOCC5)CSc5ccccc5)c(S(=O)(=O)C(F)(F)F)c4)cc3)CC2)C1 [Navitoclax] (partner 0.5 µM)', 0.465),
  ('Cc1sc2c(c1C)C(c1ccc(Cl)cc1)=N[C@@H](CC(=O)OC(C)(C)C)c1nnc(C)n1-2 [JQ1] + COc1cccc2cc(-c3nc([C@H]4CC[C@H](C(=O)O)CC4)n4ncnc(N)c34)[nH]c12 [OSI-027] (partner 0.5 µM)', 0.387),
  ('Cc1sc2c(c1C)C(c1ccc(Cl)cc1)=N[C@@H](CC(=O)OC(C)(C)C)c1nnc(C)n1-2 [JQ1] + COc1cc2c(Oc3ccc(NC(=O)C4(C(=O)Nc5ccc(F)cc5)CC4)cc3F)ccnc2cc1OCCCN1CCOCC1 [Foretinib] (partner 0.25 µM)', 0.495),
  ('Cc1sc2c(c1C)C(c1ccc(Cl)cc1)=N[C@@H](CC(=O)OC(C)(C)C)c1nnc(C)n1-2 [JQ1] + CS(=O)(=O)N1CCN(Cc2cc3nc(-c4cccc5[nH]ncc45)nc(N4CCOCC4)c3s2)CC1 [Pictilisib] (partner 1 µM)', 0.185),
  ('Cc1sc2c(c1C)C(c1ccc(Cl)cc1)=N[C@@H](CC(=O)OC(C)(C)C)c1nnc(C)n1-2 [JQ1] + Cc1cc(Nc2cc(N3CCN(C)CC3)nc(Sc3ccc(NC(=O)C4CC4)cc3)n2)n[nH]1 [Tozasertib] (partner 0.1 µM)', 0.4);
